Experiment: solubility in fasted state simulated intestinal fluid (FASSIF)
Assay type: physicochemical
Details: pH 6.1, fassif, thermodynamic from solid, pH of 6.1 at 4 hours
measurement-name: solubility at 4 h

Query :: Consider the compound N#Cc1ccnc(N2C(=O)CC[C@H]2C(=O)N(c2cncc(F)c2)[C@H](C(=O)NC2CC(F)(F)C2)c2ccccc2Cl)c1 [Form 2] . State its measured solubility at 4 h.
Result :: ~18 µg/mL
